Collected TGI values appear next to each entry.
Tested on: HCT-116 colon
Experiment: NCI tumour cell line growth inhibition, 48 h

Answered examples (2):
molecule="FC(F)(F)C12C34C=CC5(CCC6(C=CC1(CC3)O6)C52C(F)(F)F)O4 (configuration not stated)" recordedresult="> 100 µM"
molecule="NC1CNC(=O)c2cscc21 (configuration not stated)" recordedresult="> 100 µM"

stdin: Name the recorded TGI of the item O=C1N[C@@H]([C@H](CCCCCO)OC(=O)c2ccccc2)CO1 in your answer.
stdout: > 100 µM

stdin: Hello, please tell me recorded TGI for this one: CSc1c(C(=O)Nc2ccc(Cl)cc2)c(N)[nH]c(=O)c1C#N
stdout: 44.3 µM

stdin: Give TGI for the following molecule: CN(C)C(=C1c2cc([N+](=O)[O-])ccc2-c2ccc([N+](=O)[O-])cc21)N(C)C
stdout: > 100 µM

stdin: Give the measured TGI for C=C(C)CCC(C)N1CCC(N2CCC(C(=O)NCCc3ccccc3)CC2)CC1 (configuration not stated)
stdout: > 100 µM

stdin: Check the records and state TGI for O=C(O)C/C(=C\c1ccccc1)C(=O)O
stdout: > 100 µM

stdin: Identify the reported TGI for the following entry. Fc1ccc(Nc2nccc(-c3c(-c4ccc(C(F)(F)F)cc4)nn4ncccc34)n2)cc1F
stdout: > 25 µM

stdin: Indicate the recorded TGI value for this molecule: COc1ccc(COCC(Cn2ccnc2)OCc2ccc(C(=O)O)cc2)cc1 (configuration not stated)
stdout: > 100 µM

stdin: Identify TGI associated with the molecule Cc1c(C)c2ccc(OC/C=C3\CCC(=O)O3)cc2oc1=O
stdout: 26.3 µM

stdin: Find the measured TGI of Fc1ccc(Nc2nc(NCCNc3ccnc4cc(Cl)ccc34)nc(N3CCOCC3)n2)cc1 and report it.
stdout: 17 µM

stdin: Query TGI for O=c1[nH]cc(OCC(F)(F)F)c(=O)[nH]1
stdout: > 100 µM
